Catalogue of Kd values
assay_target: full-length human HP1α WT (hHP1α), recombinant (human)
protocol_details: ITC; iTC200, full-length HP1α dimer in the cell (60 μM for hINCENP, 80 μM for hSgo1), 600 μM hINCENP or 800 μM hSgo1 fragment in the syringe, 25°C, 20 mM NaPO4 pH 7.0, 150 mM NaCl, 1 mM DTT (Fig. 6A, Fig. S5A); one-site model

> print(dat)
                                  substance                              assay.target  value.type  reported.result
1  human INCENP fragment (121-210) E180A (from UniProt Q9NQS7 121-210) (domain or fragment)  full-length human HP1α WT (hHP1α), recombinant (human)          Kd           810 nM

Would you kindly look at the next entry?
What value of Kd has been recorded for this entry: human INCENP fragment (121-210) WT used in Fig. 6A (from UniProt Q9NQS7 121-210) (domain or fragment)
60 nM
